Parameter pIC50: see the listing below.
target: human NaV1.8 (hNaV1.8) ion channel (Homo sapiens); construct: expressed in transfected cells; experiment: Inhibition of Human NaV1.8 stably expressed in SH-SY-5Y cells (membrane potential dye fluorescence assay); type: cell-based; details: SH-SY-5Y cells stably expressing hNaV1.8; FLIPR membrane potential dye; 10 μM pyrethroid, 250 nM TTX; test range 100 μM-0.05 μM; read-out: hNav1.8 IC50
Sequence (Q9Y5Y9 whole entry): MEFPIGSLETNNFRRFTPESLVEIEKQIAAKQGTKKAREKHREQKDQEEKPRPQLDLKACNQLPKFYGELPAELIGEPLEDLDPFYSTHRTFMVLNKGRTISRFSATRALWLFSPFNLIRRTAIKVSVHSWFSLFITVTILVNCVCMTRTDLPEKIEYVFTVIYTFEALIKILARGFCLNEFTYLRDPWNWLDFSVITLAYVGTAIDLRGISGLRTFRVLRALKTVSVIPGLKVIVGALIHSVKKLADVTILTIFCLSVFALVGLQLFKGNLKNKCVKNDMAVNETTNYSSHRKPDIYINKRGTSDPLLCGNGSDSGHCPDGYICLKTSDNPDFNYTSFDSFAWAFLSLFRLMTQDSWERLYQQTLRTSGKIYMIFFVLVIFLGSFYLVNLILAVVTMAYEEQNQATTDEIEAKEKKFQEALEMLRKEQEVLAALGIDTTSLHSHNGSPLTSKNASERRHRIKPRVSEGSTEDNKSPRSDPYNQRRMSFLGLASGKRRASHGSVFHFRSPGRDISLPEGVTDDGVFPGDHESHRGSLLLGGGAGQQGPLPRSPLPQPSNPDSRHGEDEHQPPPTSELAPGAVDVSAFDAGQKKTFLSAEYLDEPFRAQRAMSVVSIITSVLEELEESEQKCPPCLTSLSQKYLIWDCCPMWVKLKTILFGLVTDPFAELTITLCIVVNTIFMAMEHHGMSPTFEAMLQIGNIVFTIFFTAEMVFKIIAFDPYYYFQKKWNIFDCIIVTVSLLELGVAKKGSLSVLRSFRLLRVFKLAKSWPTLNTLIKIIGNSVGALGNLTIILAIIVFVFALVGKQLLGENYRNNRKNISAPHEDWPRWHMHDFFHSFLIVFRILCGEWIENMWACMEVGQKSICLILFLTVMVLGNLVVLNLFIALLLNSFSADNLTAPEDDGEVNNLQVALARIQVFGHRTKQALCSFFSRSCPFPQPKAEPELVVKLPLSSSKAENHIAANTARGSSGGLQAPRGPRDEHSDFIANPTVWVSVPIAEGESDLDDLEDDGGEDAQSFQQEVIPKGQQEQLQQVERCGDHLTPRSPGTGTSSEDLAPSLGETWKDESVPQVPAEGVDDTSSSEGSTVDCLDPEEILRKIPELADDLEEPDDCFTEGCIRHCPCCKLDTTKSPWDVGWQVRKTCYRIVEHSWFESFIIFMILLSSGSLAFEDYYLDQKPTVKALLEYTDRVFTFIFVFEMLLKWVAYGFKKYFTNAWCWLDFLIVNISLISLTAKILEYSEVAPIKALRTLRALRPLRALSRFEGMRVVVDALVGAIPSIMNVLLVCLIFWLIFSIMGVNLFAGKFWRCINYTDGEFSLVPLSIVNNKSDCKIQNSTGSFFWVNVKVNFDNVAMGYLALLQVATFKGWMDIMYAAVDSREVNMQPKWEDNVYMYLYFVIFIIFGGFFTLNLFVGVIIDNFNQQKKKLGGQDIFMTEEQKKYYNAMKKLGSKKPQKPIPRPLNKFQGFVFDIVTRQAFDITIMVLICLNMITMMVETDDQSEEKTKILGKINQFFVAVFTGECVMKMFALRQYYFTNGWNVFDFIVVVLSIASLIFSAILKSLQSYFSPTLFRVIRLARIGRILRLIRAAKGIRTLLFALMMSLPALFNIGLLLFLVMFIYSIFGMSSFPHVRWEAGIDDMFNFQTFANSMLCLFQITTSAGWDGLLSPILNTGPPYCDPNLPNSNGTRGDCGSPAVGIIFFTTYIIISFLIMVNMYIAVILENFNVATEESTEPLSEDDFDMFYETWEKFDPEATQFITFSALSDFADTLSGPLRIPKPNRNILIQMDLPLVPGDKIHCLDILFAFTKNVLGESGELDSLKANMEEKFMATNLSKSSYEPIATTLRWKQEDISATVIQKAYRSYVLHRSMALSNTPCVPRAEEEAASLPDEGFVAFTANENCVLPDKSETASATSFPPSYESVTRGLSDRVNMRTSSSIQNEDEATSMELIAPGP
When answering, recall that pIC50 equals minus log10 of the concentration in mol/L, and write that number alone.

Example cases with answers are listed next.
molecule	measuredTarget	pIC50
CC(NC1CN(C(=O)Nc2ccc(Oc3ccc(F)cc3)cc2)C1)c1ccccc1Cl (stereo not shown) [Example 94]	human NaV1.8 (hNaV1.8) ion channel (Homo sapiens)	6.27
CC1(NC2CCc3ccccc3C2)CN(C(=O)Nc2ccc(C(F)(F)F)cc2)C1 (stereo not shown) [Example 42]	human NaV1.8 (hNaV1.8) ion channel (Homo sapiens)	6.16
O=C(Cc1ccc(Oc2ccc(F)cc2)cc1)N1CC(NC2Cc3ccc(F)cc3C2)C1 (stereo not shown) [Example 50]	human NaV1.8 (hNaV1.8) ion channel (Homo sapiens)	6.11

# ---- query molecule ----
# input Form entry - test system: human NaV1.8 (hNaV1.8) ion channel (Homo sapiens); read-out: pIC50; molecule: CC1CC(NC2CN(C(=O)Nc3ccc(Oc4ccccc4)cc3)C2)c2ccccc21 (stereo not shown) [Example 26]
# output 6.62
